valueType: melting point

melting point reported for this molecule CC(C)n1nc(-c2cc(C(N)=O)c(=O)[nH]c2-c2ccccc2)ccc1=O : > 250 °C

Entry O=C(Nc1ccccc1)C1=NOCCS1(=O)=O — recorded melting point = 206 to 207 °C

Form: molecule = COCc1c(C=NO)nc(Oc2nccc3ccccc23)c2[nH]c3ccccc3c12 ; melting point = 107 to 112 °C

Lookup result for CN1C(=O)CN2CCNC2(c2ccccc2)c2cc(Cl)ccc21 (centres undefined) ; measured melting point: 164 to 167 °C

Noted for Cc1nc2c3c(c(CCl)cn2c1C)CCC(c1ccccc1)C3 (centres undefined) : its melting point reads 155 to 157 °C

Per the record, COc1nc2cc(Cl)cc(I)c2nc1OC has melting point of 94 to 96 °C

The measured melting point associated with CC(CCCNc1ccccc1)C1CC=C2C3=C(CCC21C)C1(C)CCC(O)C(C)(C)C1CC3 (centres undefined) reads 178 to 180 °C

Record Clc1cccc(C2=Nc3cccnc3Nc3ccccc32)c1 , field melting point: 160 °C

molecule FC(F)(F)c1cccc(CSc2nnc(-c3ccnc4[nH]ccc34)o2)c1 , melting point observed: 164 to 165 °C

Sure, the documented melting point for COc1ccccc1C=C(C=O)C(C=O)=Cc1ccccc1OC is 163 to 164 °C

The molecule identified as Cn1cc(C(=O)NCc2ccc(Cl)cc2)c(=O)c2cc(CN3CCOCC3)cc(C#CCN3CCC(O)CC3)c21 registered its melting point at 180 to 183 °C

Data point: CS(=O)(=O)Cc1cc(C(=O)C=O)ccc1OCc1ccccc1 ; melting point = 108 to 110 °C

// melting point value for O=C1CCC(N2Cc3cc(CNC(=O)Nc4ccc(Cl)c(-c5nc6ccccc6[nH]5)c4)ccc3C2=O)C(=O)N1 (centres undefined) : 275 to 277 °C

For record FC(F)(F)c1ccc(C(Cl)=NN=Cc2ccccc2)cc1 the listed melting point is 95 to 96 °C

---

Kindly state melting point for each of the entries shown.

Form field melting point, entry Cc1ccc2[nH]c(C(=O)OC(C)C)c(Sc3ccc(Cl)cc3)c2c1 : 172 to 174 °C

Lab note: measured melting point of Cc1cc(C)c2c(O)c3c(=O)[nH][nH]c(=O)c3nc2c1 was > 395 °C

get_value(item= COc1ccc(N2CCN(c3c(C)c(C)c4c(c3C)C(O)(c3ccccn3)C(C)(C)O4)CC2)cc1 (stereo not given) , readout=melting point) returns 113 to 115 °C

Just so you know, measured melting point for Nc1ccc(Sc2ccccn2)cc1C(F)(F)F came out at 132 to 133 °C

melting point for Cc1[nH]c(=O)c(C#N)c2c1CC(C)CC2 (stereo not given) is > 290 °C

Sample Cc1cccc(-c2n[nH]cc2-c2ccnc(-c3ccc(Cl)cc3)c2)n1 ; melting point observed: 190 °C

Reported melting point of Cc1c(C(=O)O)oc2c(C(=O)c3ccc(Cl)cc3)cc(C(C)(C)C)c(O)c12 : 214 to 216 °C

Lookup result for COC(=O)/C=C\C1C(C(=O)O)C1(C)C (stereo not given) ; measured melting point: 106 °C

Lab note: measured melting point of Cc1ccc(Oc2ccc(NN)cc2)c(O)c1 was 145 to 148 °C

melting point in this record for O=C(C=Cc1ccc(N2CCOCC2)cc1)c1ccc2c(c1)CCCC2 : 138 to 140 °C

Entry COc1ccc(C2(c3ccc(OC)cc3)CCN(CC[C@H]3CN(C)[C@@H]4Cc5c[nH]c6cccc(c56)[C@@]4(OC)C3)CC2)cc1 — recorded melting point = 129 to 136 °C

Data point: CC(C)NCC(O)COc1cccc2c1CC(=O)N2 (stereo not given) ; melting point = 173 to 175 °C

Briefly, melting point measured for CCN(CC)c1ccc(-c2cc(-c3ccc(C(=O)O)cc3)ccc2CCCNC(C)C)cc1C(C)(C)C : 253 °C

melting point measured on COc1ccc(NCCCOc2ccc3cc(OCCCNc4ccc(OC)cc4)ccc3c2)cc1 = 129 °C

Sure, the documented melting point for CCOC(=O)C=CC(=CN)C(=O)OCC is 109 °C

---

valueType: melting point

Summary for this compound, CC(O)=C1C(=O)CC(c2cc(Cl)sc2Cl)CC1=O (stereo not drawn) : melting point is 107 to 108 °C

Field melting point (entry CCOC(=O)c1cn(-c2ccc(F)cc2F)c2nc(N3CCN(C(C)=O)CC3)c(F)cc2c1=O ) reads 219 to 220 °C

Lab note: N#Cc1c(Cl)[nH]c2cccnc12 gave melting point of > 250 °C

Input COC(OC)C(=O)NC(Cc1ccccc1)c1ccccc1 (stereo not drawn) . Output melting point: 108 to 110 °C

Consider COc1ccc(S(C)(=O)=O)cc1-c1nc2ccc(C(C)(C)CNC=O)cc2[nH]1 . Its measured melting point is 235 to 236 °C

Reported melting point for CCOC(=O)c1conc1-c1cccc(C#N)c1 was 135 to 137 °C

The compound listed as CNC(=O)c1cccc(NC(=O)Cc2ccc(F)cc2)c1 has a reported melting point of 155 to 156 °C

Quick note, melting point for CC12CC(=O)C3C(CCC4C(Br)C(O)CCC43C)C1CCC2C(=O)CBr (stereo not drawn) landed at 164 to 166 °C

Entry CC(C)(C)OC(=O)NC1COCCCC=CC2CC2(C(=O)NS(=O)(=O)C2CC2)NC(=O)C2CC(OC(=O)c3ccc(Oc4ccccc4)cc3)CN2C1=O (stereo not drawn) ; melting point = 207 to 209 °C

Value of measured melting point for the entry CC#Cc1ccc([C@H]2CC[C@H](CCCCC)CC2)nn1 : 103 to 104 °C

Input COC(=O)c1ccccc1-c1nc(COc2ccc(COc3nn(-c4ccccc4)cc3C=O)cc2OC)c(C)o1 . Output melting point: 134 to 135 °C

Measured melting point, CC1(C)NCC(=O)N1CC(N)=O : 144 to 146 °C

COC(=O)C(C)c1ccc2cc(OC(=O)COCc3ccccc3)ccc2c1 (stereo not drawn) yielded melting point of 58 to 60 °C

---

Assign melting point to each entry below.

get_value(item= CC(=O)OCC1OC(n2c(=O)sc3c(=O)[nH]c(N)nc32)C(OC(C)=O)C1OC(C)=O (stereo not drawn) , readout=melting point) returns 198 to 199 °C

Measured melting point of CCN(CC)CC(=O)OC1CC2(C)C(C(C)=O)CCC2C2CCC3CC(O)C(SC#N)CC3(C)C12 (stereo not drawn) : 173 to 180 °C

The compound identified as NCC(O)COc1cccc2c1=NC(=O)N=2 (stereo not drawn) registered its melting point at 188 to 190 °C

Query O=C(NO)c1ccc2c(c1)CCN(C(=O)NCc1ccccc1)C2 yields melting point of 149 to 153 °C

Lookup result for CS(=O)(=O)c1ccc(-c2cnn(CC(F)(F)F)c(=O)c2NC2CCCO2)cc1 (stereo not drawn) ; measured melting point: 128 to 129 °C

Data point: CCOC(=O)CC(O)CP(=O)(OCC)OCC (stereo not drawn) ; melting point = 33 to 35 °C

melting point reported for this compound CCOC(=O)c1cc(N)cc(N)c1 : 77 to 78 °C

response.value for CC1c2ccccc2COc2ccc(C(=O)O)cc21 (stereo not drawn) (field: melting point) = 224 to 226 °C

---

Assignment: determine reported melting point for the given compounds.

The compound listed as O=C(O)CC(CC(=O)Nc1cc(OCC=C(Cl)Cl)c(Cl)cc1F)C(F)(F)F (stereo not drawn) has a reported melting point of 117 to 118 °C

Reported melting point of Cc1ccc2nc(NC(=O)c3ccc(C(C)(C)CCC(=O)O)cc3)cn2c1 : 280 to 282 °C

Lookup result for CC(C)C(NC(=O)Cn1cccc(NC(=O)Cc2ccccc2)c1=O)C(=O)C(F)(F)F (stereo not drawn) ; measured melting point: 70 to 72 °C

---

Would you kindly list melting point for each of these compounds?

Record summary for C(=C1CCCc2cccnc21)c1ccccc1 : reported melting point = 58 to 59 °C

Summary for this compound, N#Cc1ccc(-c2cc3ccc(C#N)cc3[nH]2)cc1 : melting point is 270 to 275 °C

Looking up CC(C)(O)c1ccc(-c2nn(Cc3ccccc3)c3ccccc23)o1 , I found its melting point recorded as 124 to 127 °C

Briefly, melting point measured for CCCCCCCCCCS(=O)(=O)c1ccc(O)c(C(=O)Nc2ccc(C(F)(F)F)cc2)c1 : 155 to 157 °C

// sample C=C1C(=O)NC(=O)N1c1cccc(Cl)c1Cl , its melting point was 201 to 203 °C

Kindly note the recorded melting point for CCOc1ccccc1C=C1CCc2c1nc1ccc(C(=O)O)cn1c2=O , which is 328 to 332 °C

Record CCc1cc(Cl)c2c(=O)cc(C(=O)O)[nH]c2c1 . Reported melting point: 248 to 250 °C

melting point reading for Cc1cccc(-n2c(-c3cc(-c4ccc(S(C)(=O)=O)cc4)c(N4CCOCC4)s3)nc3ccccc3c2=O)c1 : 208 to 210 °C

Reported melting point of Cc1oc2ccccc2c(=O)c1N : 118 to 120 °C

Entry under test: CS(=O)(=O)c1cc2c(cc1O)CCNCC2 . Its melting point was 241 to 242 °C

Recorded result, COc1ccc(-c2nc(-c3ccc(F)cc3)c(-c3ccncc3)[nH]2)cc1 , melting point: 264 to 265 °C

Memo: CCOCCN(c1cccc2cc(C(N)=O)[nH]c12)S(=O)(=O)c1cccs1 , reported melting point: 135 °C

// melting point lookup, compound = CCOC(=O)CNC(=O)CCCOc1ccc2nc3[nH]c(=O)[nH]c3cc2c1 , result: 274 to 276 °C

The compound listed as CN(N)C(=O)c1ccc(O)c(O)c1 has a reported melting point of 202 to 205 °C

Record summary for Cc1nc(-c2cnc3[nH]cc(C(=O)N[C@@H](C(=O)N4CC(C#N)C4)C4CC4)c3n2)cn1-c1ccccc1 : reported melting point = 175 to 179 °C

For reference, reported melting point for [O-][N+](=Cc1ccccn1)c1cccc(CO)c1 stands at 117 to 119 °C

Short answer for Cn1cncc1-c1cnc(-c2ccccc2)nc1 : melting point was 144 °C

The reported melting point of the compound N=C(N)NNC(=O)c1cccc(-c2csc(N=C(N)N)n2)n1 was 194 to 196 °C

// sample COCCNc1nccc(Oc2ccc(NC(=O)c3cc(F)cc(N4CCOCC4)c3)c3ccccc23)n1 , its melting point was 95 to 97 °C

What the record says about CCC(=O)N(N(CCCl)S(C)(=O)=O)S(C)(=O)=O : melting point is 97 to 98 °C

Form field melting point, entry COc1cc(C(C)C)ccc1C1COc2c(C)c(C)c(Br)c(C)c21 (centres undefined) : 102 to 103 °C

For CCN1C(c2ccccc2C(=O)c2ccc(Cl)cc2)=NCC1(C)C the compound record lists melting point as 85 to 87 °C

Consider Cn1nc(-c2nc(C#CCO)c(Cl)cc2F)c(Cl)c1OC(F)F . Its measured melting point is 92 to 94 °C

# melting point of Cc1nc(-c2ccc(Cl)cc2)sc1C(=O)N[C@H](C)[C@](O)(Cn1cncn1)c1ccc(F)cc1F = 159 to 160 °C

Item: CS(=O)(=O)c1ccc(C2=C(c3ccc(F)cc3)CC3(CCC3)C2)cc1 | melting point: 123 to 124 °C

get_value(item= CCC(C)CNc1nc2ccc(Sc3nnc4n3N=C(c3ccc(F)cc3)CC4)cc2s1 (centres undefined) , readout=melting point) returns 220 °C

Query C#Cc1c(C#N)nn(-c2c(Cl)cc(C(F)(F)F)cc2Cl)c1Cl yields melting point of 109 to 110 °C

// sample NCCCc1ccc(OCCC2Oc3ccccc3N(Cc3ccc(Cl)cc3)C2=O)cc1 (centres undefined) , its melting point was 95 to 97 °C

Entry Cc1cccc2c1CCC(=O)C2(O)C(F)(F)F (centres undefined) , melting point reported as 122 to 123 °C

Memo: Cc1cc(C)cc(NC(=O)NC2CC2)c1 , reported melting point: 169 °C

Memo: O=[N+]([O-])c1c(-c2ccc(Cl)cc2)[nH]c(SC(F)(F)F)c1Br , reported melting point: 160 to 165 °C

response.value for Cc1cc(N(C)S(C)(=O)=O)ccc1I (field: melting point) = 85 to 87 °C

Value of measured melting point for the entry NS(=O)(=O)c1cccc(-c2cn(-c3nc(-c4ccc(Cl)cc4)cc(C(F)(F)F)n3)cn2)c1 : 225 °C

The compound identified as Cc1nc2ccccc2c(NCc2ccccc2)c1C(=O)O registered its melting point at 190 °C

meta.source: a melting point compilation (Tetko et al.; mined from patent text by program, amines drawn as free bases though some values may be those of a salt)
